- Test system: Platelet
- METHOD: Cytotoxicity against human Platelet assessed as increase in LDH leakage at 200 uM after 10 mins by LDH assay
- Assay type: cell-based
PARAMETER_MEASURED: Activity

# COMPOUND, Activity
records = [
    ("CC1C=CC(CO)c2c(O)c3c(c(O)c21)C(=O)C=CC3(C)C (stereo unspecified)", "Non-Toxic"),
    ("CCCCCC1=CC(C)(C)c2c(O)ccc(O)c2C1=O", "Toxic"),
    ("CC1C=CC(COC(=O)C2CCCCC2)c2c(O)c3c(c(O)c21)C(=O)C=CC3(C)C (stereo unspecified)", "Non-Toxic"),
    ("CCCCCCC1=CC(C)(C)c2c(O)ccc(O)c2C1=O", "Toxic"),
]

In plain terms, CCCCCCCC1=CC(C)(C)c2c(O)ccc(O)c2C1=O has a documented Activity of Toxic

Measured Activity of Cc1c(C)c(O)c2c(c1O)C(=O)C=CC2(C)C : Non-Toxic

Measured values drawn from ChEMBL document CHEMBL4765278 for this set.
